- Tested on: HEK-293T
- TEST METHOD NOTES: Incucyte cell viability with HEK293T; also: unitless GR value; below 1 slowed growth and below 0 cell loss
- Format: toxicity, cell-based
- CONDITION CONTEXT: human, 24 h, 10 µM, compound concentration 10 uM, replicate number 1
Peptide text beside a SMILES is read from it.
READOUT NAME: Growth Rate

{"columns": ["MOLECULE", "TARGET UNDER TEST", "MEASUREMENT"],
 "data": [
  ["CN1CCN(c2cc(C(=O)Nc3ncc(SCc4cccc(C(F)(F)F)c4)s3)ccn2)CC1", "HEK-293T", 0.24],
  ["COc1cccc(OC)c1S(=O)(=O)Nc1noc2cc(Cn3cccn3)cc(OC)c12", "HEK-293T", 0.71],
  ["CC(=O)N[C@@H](CC(C)C)C(=O)N[C@@H](CCC(=O)O)C(=O)N[C@@H](Cc1cnc[nH]1)C(=O)N[C@H](C=O)CC(=O)O.O=C(O)C(F)(F)F (Ac-LEHD-aldehyde)", "HEK-293T", 0.81]
]}

Shifting focus to the molecule that follows.
Exam item: What value of Growth Rate has been recorded for this entry: CC(=O)N[C@@H](Cc1ccc(O)cc1)C(=O)N[C@H](C(=O)N[C@@H](C)C(=O)N[C@H](C=O)CC(=O)O)C(C)C
Marked response: 0.6

* * *

- Tested on: U2OS
- TEST METHOD NOTES: Incucyte cell viability with U2OS; also: unitless GR value; below 1 slowed growth and below 0 cell loss
- Assay type: toxicity, cell-based
- CONDITION CONTEXT: human, 24 h, 10 µM, compound concentration 10 uM, replicate number 2
Peptide text beside a SMILES is read from it.
Entries and their Growth Rate values follow.
Keep it simple and answer with nothing but the number.

Below: 5 molecules and their reported Growth Rate.
{"columns": ["MOLECULE", "MEASUREMENT"],
 "data": [
  ["CCC(=O)N1CCOc2c(cc(-c3cc(OC)cc(OC)c3)cc2C(=O)N[C@H]2CCCN(C)C2)C1", 1],
  ["CC(=O)N1CCc2c(c(N3CCCc4cc(-c5cnn(C)c5)c(C(F)F)cc43)nn2C2CCOCC2)C1", 0.89],
  ["CC(C)N(CCCNC(=O)Nc1ccc(C(C)(C)C)cc1)C[C@H]1O[C@@H](n2ccc3c(N)ncnc32)[C@H](O)[C@@H]1O", 0.59],
  ["COc1cc2c(NC3CCN(CC4CCCCC4)CC3)nc(N3CCCN(C(C)C)CC3)nc2cc1OCCCN1CCCCC1", -0.15],
  ["O=C(NCC1CCOCC1)c1n[nH]cc1NC(=O)c1c(F)cccc1F", 0.42]
]}

Exam item: Recall the recorded Growth Rate for CC(=O)N[C@@H](CC(C)C)C(=O)N[C@@H](CCC(=O)O)C(=O)N[C@@H](Cc1cnc[nH]1)C(=O)N[C@H](C=O)CC(=O)O.O=C(O)C(F)(F)F (Ac-LEHD-aldehyde) with U2OS and state it.
Marked response: 0.89

Exam item: Recall the recorded Growth Rate for COc1cc(-c2cn(C)c(=O)c3cnccc23)cc(OC)c1CN(C)CC(=O)NCCOCCOCCNc1cccc2c1C(=O)N(C1CCC(=O)NC1=O)C2=O (centres undefined) with U2OS and state it.
Marked response: 0.96

* * *

- Tested on: U2OS
- TEST METHOD NOTES: Incucyte cell viability with U2OS; also: unitless GR value; below 1 slowed growth and below 0 cell loss
- Format: toxicity, cell-based
- CONDITION CONTEXT: human, 24 h, 10 µM, compound concentration 10 uM, replicate number 2
Square brackets hold non-standard residues; d marks the D form. Peptide text beside a SMILES is read from it.
Entries and their Growth Rate values follow.
Keep it simple and answer with nothing but the number.

Below: 6 molecules and their reported Growth Rate.
{"columns": ["MOLECULE", "Growth Rate"],
 "data": [
  ["CC(C)(O)c1ccc(-c2nc3c(F)cc(F)cc3c(=O)[nH]2)cc1", 1],
  ["CC(=O)N[C@@H](C)C(=O)N[C@@H](CCC(=O)O)C(=O)N[C@H](C(=O)N[C@@H](C=O)CC(=O)O)C(C)C (Ac-AEV[dD]-aldehyde)", 0.76],
  ["CCCOC(=O)N1CCN(C(=O)c2ccc3c(Cl)cc(-c4ccc(C5(N)CC5)cc4)nc3c2)C[C@H]1C", 1],
  ["O=C(CCCCCCC(=O)Nc1ccc([C@H]2O[C@@H](CSc3nc(-c4ccccc4)c(-c4ccccc4)o3)C[C@@H](c3ccc(CO)cc3)O2)cc1)NO", 0.73],
  ["O=S(=O)(O)c1ccc2cc(/N=N/c3cc(S(=O)(=O)O)c4cccnc4c3O)ccc2c1", 1],
  ["O=C(C=Cc1ccc(O)cc1)c1ccc(O)cc1O", 0.75]
]}

Exam item: What value of Growth Rate has been recorded for this entry: COc1cccc(-c2nccc3c2CN(c2ccccc2)C3=O)c1
Marked response: 0.84

* * *

- Tested on: U2OS
- TEST METHOD NOTES: Incucyte cell viability with U2OS; also: unitless GR value; below 1 slowed growth and below 0 cell loss
- Assay type: toxicity, cell-based
- CONDITION CONTEXT: human, 24 h, 10 µM, compound concentration 10 uM, replicate number 1
Could you label it Y if measured Growth Rate is 0.7 or higher, and N otherwise?

Example results:
{"columns": ["MOLECULE", "CATEGORY LABEL"],
 "data": [
  ["N#C[C@@H]1CCCN1C(=O)[C@@H]1CCCN1C(=O)CCCc1ccccc1", "Y"],
  ["Br.N#Cc1ccc(-c2csc(NN=C3CCCC3)n2)cc1", "N"],
  ["N#Cc1ccc([C@H]2CCCC[C@H]2O)cc1C(F)(F)F", "Y"]
]}

Note: attention shifts to another entry.
Exam item: Does Growth Rate meet or surpass 0.7 for CC(=O)N[C@@H](CC(=O)O)C(=O)N[C@@H](CCC(=O)O)C(=O)N[C@H](C(=O)N[C@H](C=O)CC(=O)O)C(C)C.O=C(O)C(F)(F)F ?
Marked response: Y

* * *

- Tested on: Fibroblast
- TEST METHOD NOTES: Incucyte cell viability with human fibroblast; also: unitless GR value; below 1 slowed growth and below 0 cell loss
- Format: toxicity, cell-based
- CONDITION CONTEXT: 24 h, 10 µM, compound concentration 10 uM, replicate number 2
Peptide text beside a SMILES is read from it.
Entries and their Growth Rate values follow.

Below: 3 compounds and their reported Growth Rate.
{"columns": ["COMPOUND", "READOUT NAME", "MEASUREMENT"],
 "data": [
  ["CC(C)(CNC(=O)c1cccc(-c2noc(C(F)(F)F)n2)c1)c1coc(-c2ccccc2)n1", "Growth Rate", 0.8],
  ["CNC(=O)Cn1cc(-c2ccc3c(c2)[C@H](F)C[C@]32NC(=O)N(CC(=O)N(Cc3ccc(F)cc3)[C@@H](C)C(F)(F)F)C2=O)cn1", "Growth Rate", -0.43],
  ["Oc1ccc(-c2c(-c3ccccc3)nn3c(C(F)(F)F)cc(C(F)(F)F)nc23)cc1", "Growth Rate", 0.27]
]}

Exam item: What value of Growth Rate has been recorded for this entry: CSCC[C@H](NC(=O)[C@H](CC(=O)O)NC(C)=O)C(=O)N[C@@H](CCC(N)=O)C(=O)N[C@H](C=O)CC(=O)O.O=C(O)C(F)(F)F (Ac-DMQD-aldehyde)
Marked response: 1

Exam item: What value of Growth Rate has been recorded for this entry: C[C@H](CN[C@@H](C(=O)Nc1ccc(-c2cnn(C)c2)cn1)c1ccccc1)c1ccc(C#N)cc1
Marked response: -0.53

Exam item: What value of Growth Rate has been recorded for this entry: COC(=O)C[C@@H]1N=C(c2ccc(Cl)cc2)c2c(sc(C)c2C)-n2c(C)nnc21
Marked response: 0.73

Exam item: What value of Growth Rate has been recorded for this entry: CC(C)C(=O)SCCCCCCC(=O)Nc1nc(-c2ccccc2)cs1
Marked response: -0.31

Exam item: What value of Growth Rate has been recorded for this entry: CC(=O)OCCN1C(=O)c2c(C)nc3ccc(S(=O)(=O)N4CCOCC4)cc3c2C1=O
Marked response: 1

* * *

Entries and their Growth Rate values follow.
- Test system: Fibroblast
- TEST METHOD NOTES: Incucyte cell viability with human fibroblast; also: unitless GR value; below 1 slowed growth and below 0 cell loss
- Type: toxicity, cell-based
- CONDITION CONTEXT: 24 h, 10 µM, compound concentration 10 uM, replicate number 2
Peptide text beside a SMILES is read from it. * marks the point of attachment. Cbz = O=C(OCc1ccccc1)*; CH2F = FC*
Keep it simple and answer with nothing but the number.

Below: 2 compounds and their reported Growth Rate.
{"columns": ["COMPOUND", "TARGET UNDER TEST", "Growth Rate"],
 "data": [
  ["COC(=O)CC[C@H](NC(=O)[C@H](Cc1c[nH]c2ccccc12)NC(=O)OCc1ccccc1)C(=O)N[C@@H](Cc1cnc[nH]1)C(=O)N[C@@H](CC(=O)OC)C(=O)CF (Cbz-WE(OMe)HD(OMe)-CH2F)", "Fibroblast", 1],
  ["Cc1ncsc1-c1ccc(CNC(=O)[C@@H]2C[C@@H](O)CN2C(=O)[C@@H](NC(=O)COCCOCCOCCNC(=O)C[C@@H]2N=C(c3ccc(Cl)cc3)c3c(sc(C)c3C)-n3c(C)nnc32)C(C)(C)C)cc1", "Fibroblast", -0.26]
]}

Exam item: What value of Growth Rate has been recorded for this entry: CC(C)n1nc(-c2cc3cc(O)ccc3[nH]2)c2c(N)ncnc21
Marked response: 0.98
